Target: THIK-1 S136A (Homo sapiens, UniProt Q9HB14, S136A)
Construct: expressed in transfected cells; host or cells: Xenopus oocytes (mRNA injection)
Sequence (Q9HB14 whole entry S136A): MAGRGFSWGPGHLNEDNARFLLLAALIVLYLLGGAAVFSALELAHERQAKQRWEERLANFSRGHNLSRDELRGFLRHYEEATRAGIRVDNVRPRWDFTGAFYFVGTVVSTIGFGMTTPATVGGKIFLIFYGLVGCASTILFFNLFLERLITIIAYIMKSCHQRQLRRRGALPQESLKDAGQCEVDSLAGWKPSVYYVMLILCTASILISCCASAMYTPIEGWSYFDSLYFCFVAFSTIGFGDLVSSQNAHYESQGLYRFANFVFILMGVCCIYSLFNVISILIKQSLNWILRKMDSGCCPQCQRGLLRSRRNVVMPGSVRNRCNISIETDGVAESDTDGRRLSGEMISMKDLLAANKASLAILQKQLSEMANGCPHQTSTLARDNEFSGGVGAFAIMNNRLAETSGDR
Test: Inside-out excised patch recordings, oocytes, THIK-1 S136A mutant
Assay type: cell-based
Details: mean, read-out: TPenA IC50
Description: Supplement 41594_2025_1497_MOESM2_ESM.xlsx, sheet "ExtData_Fig_S2c" | column: Normalized currents
Metric Name: pIC50
Answers are plain numbers, as −log10 of the molar value.

I have this molecule here, CCCCC[N+](CCCCC)(CCCCC)CCCCC [TPenA, tetrapentylammonium] , and I need its recorded pIC50.
3.61
